B1: Activity-dependent neuroprotector homeobox protein, residues 770 to 810; numbered along this chain, Q9H2P0 (parent)
chain: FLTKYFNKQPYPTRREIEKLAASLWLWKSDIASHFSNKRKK

variants of: B1; assay: abundance fitness (aPCA) (normalised: wild type 0, dead -1); higher = more abundant; growth selection in yeast, the domain comes from the species named; conditions: Homo sapiens
abundance fitness vs -0.1: at or above is Condition met, below is Condition not met.

sequenceContent | categoryLabel
FLTKYFNKQPYPTRREIEKLAAGLWLWKSDIASHFSNKRKK [S23G] | Condition not met
FLTKLFNKQPYPTRREIEKLAASLWLWKSDIASHFSNKRKK [Y5L] | Condition not met
FLTKYFNKQPYPTRREIEKLAASLWLWKSWIASHFSNKRKK [D30W] | Condition met
FLTKYFNKQPYPTRREIEKLAWSLWLWKSDIASHFSNKRKK [A22W] | Condition not met
FLTQYFNKQPYPTRREIEKLAASLWLWKSDIASHFSNKRKK [K4Q] | Condition not met
FLTKYFNKQPYPTRREIEKLAASLWLWKSDIASHFFNKRKK [S36F] | Condition met
FLPKYFNKQPYPTRREIEKLAASLWLWKSDIASHFSNKRKK [T3P] | Condition not met
FLIKYFNKQPYPTRREIEKLAASLWLWKSDIASHFSNKRKK [T3I] | Condition not met
FLTKYFNKQPYPTRREHEKLAASLWLWKSDIASHFSNKRKK [I17H] | Condition not met
FLTKYFNKQPYPTRREIEKLAASLWLWKSDIASHFSMKRKK [N37M] | Condition met
FLTKYFNKIPYPTRREIEKLAASLWLWKSDIASHFSNKRKK [Q9I] | Condition met
FLTKYFNKQPYPTRREIEKLAASLWLWKSDIASHFSNKRKP [K41P] | Condition not met
FLTKYFNKQPYPTRREIEKLAASLWLWKSDRASHFSNKRKK [I31R] | Condition not met
FLTKYFNKQPYPTVREIEKLAASLWLWKSDIASHFSNKRKK [R14V] | Condition not met
FLTKYFNKQPYPTRREIEKLAASLWPWKSDIASHFSNKRKK [L26P] | Condition met
FLTKYFNKQPYPTRREIEKLAASIWLWKSDIASHFSNKRKK [L24I] | Condition met
FLTKYFNKQPYPTRREIEKLAASLWLWKSDIAIHFSNKRKK [S33I] | Condition not met
FLTKYFNKQPYPTRREFEKLAASLWLWKSDIASHFSNKRKK [I17F] | Condition not met
FLTKYFNKDPYPTRREIEKLAASLWLWKSDIASHFSNKRKK [Q9D] | Condition not met
KLTKYFNKQPYPTRREIEKLAASLWLWKSDIASHFSNKRKK [F1K] | Condition not met
FLTKYTNKQPYPTRREIEKLAASLWLWKSDIASHFSNKRKK [F6T] | Condition not met
FLTKYFNEQPYPTRREIEKLAASLWLWKSDIASHFSNKRKK [K8E] | Condition not met
FLTKYFNKQPYATRREIEKLAASLWLWKSDIASHFSNKRKK [P12A] | Condition met
FLTKYFNKQPYPTRRTIEKLAASLWLWKSDIASHFSNKRKK [E16T] | Condition met
FLTKYFNKQPYPTRREIEKLAASLWLWKSDIASHFSNKRAK [K40A] | Condition met
FLTKYFNLQPYPTRREIEKLAASLWLWKSDIASHFSNKRKK [K8L] | Condition not met
FLTKYFNKQPYPTRREIEKGAASLWLWKSDIASHFSNKRKK [L20G] | Condition not met
FLTKYFNKQPYPTRREIEKLAASLWLWKSDIASNFSNKRKK [H34N] | Condition not met
FLTKYFNKQPYPTRREIEKLAASLWFWKSDIASHFSNKRKK [L26F] | Condition met
FLTKYFNKQPYPTRREIEKFAASLWLWKSDIASHFSNKRKK [L20F] | Condition met
FLTKYFNKQPYPTRREIEKLAASLWLWKSDIASHFSNIRKK [K38I] | Condition not met
FLTKYFNKQPYPTRREIDKLAASLWLWKSDIASHFSNKRKK [E18D] | Condition not met
FLTKYFNKQPYPTRREIEKLAASLWLWKSDIASHFSVKRKK [N37V] | Condition met
FLTKYFNKQPYPTRREIEKLAASLWLWKSDVASHFSNKRKK [I31V] | Condition met
FLTKYFNKQPYPTRREIEKLAASLWLWKSDIASHFSNKFKK [R39F] | Condition not met
FVTKYFNKQPYPTRREIEKLAASLWLWKSDIASHFSNKRKK [L2V] | Condition not met
FLTKYFNKQPYPTRREIEKLAARLWLWKSDIASHFSNKRKK [S23R] | Condition met
FLTKYFNKQPYPTRREIEKLAASLWLWKSDIASHFSNKRKG [K41G] | Condition not met
FLTKYFNKQPYPTRREIEKLAASLWLMKSDIASHFSNKRKK [W27M] | Condition met
FLTKYFNKQPYPTRREIEKLAASLWLWKSDQASHFSNKRKK [I31Q] | Condition not met
FLTKYFNKQPYPTRREIEKLAASLWLWKSDIASHFSNKWKK [R39W] | Condition met
FLTKYFNKQPYPTRREIEKLAATLWLWKSDIASHFSNKRKK [S23T] | Condition met
FLTKYFWKQPYPTRREIEKLAASLWLWKSDIASHFSNKRKK [N7W] | Condition not met
FLTKYFNKQPYPRRREIEKLAASLWLWKSDIASHFSNKRKK [T13R] | Condition met
FLTKYFNKQPYPTRREICKLAASLWLWKSDIASHFSNKRKK [E18C] | Condition not met
FLTKYFNKQPYPTRREIEKLKASLWLWKSDIASHFSNKRKK [A21K] | Condition met
FLTKYFNKQPYPTRREIEKLAASLWLWKSDIASRFSNKRKK [H34R] | Condition met
FLTKYFNKQPYPTRREIEKLAASLWLWKSDIASHFSNKRKQ [K41Q] | Condition met
FLTKYFNKQPYPTRREIEKLYASLWLWKSDIASHFSNKRKK [A21Y] | Condition not met
FLTKYFNKQPYPTRREIEKLAASLWLWKSDIATHFSNKRKK [S33T] | Condition met
FLTKYFNKQPYPTRREIEKLAASLWLWKSDIASHFSNARKK [K38A] | Condition not met
FLTKYFNKQPYRTRREIEKLAASLWLWKSDIASHFSNKRKK [P12R] | Condition not met
FLTKYFNKQPLPTRREIEKLAASLWLWKSDIASHFSNKRKK [Y11L] | Condition met
FLTKYFNAQPYPTRREIEKLAASLWLWKSDIASHFSNKRKK [K8A] | Condition not met
FLTKYFNKQPYPTLREIEKLAASLWLWKSDIASHFSNKRKK [R14L] | Condition not met
FLTKYFNKQPYPTRREIEKLAASLWLYKSDIASHFSNKRKK [W27Y] | Condition not met
CLTKYFNKQPYPTRREIEKLAASLWLWKSDIASHFSNKRKK [F1C] | Condition not met
FLTKYFNKQPYPTRREIEKLAASLWLWKQDIASHFSNKRKK [S29Q] | Condition met
FLTKYFNKQPYPTRRAIEKLAASLWLWKSDIASHFSNKRKK [E16A] | Condition not met
FLTKYFNRQPYPTRREIEKLAASLWLWKSDIASHFSNKRKK [K8R] | Condition not met
FLTKYFNKQPYPTRREIEKLAASLWLRKSDIASHFSNKRKK [W27R] | Condition met
FLTKYFNKQPYFTRREIEKLAASLWLWKSDIASHFSNKRKK [P12F] | Condition not met
FLTKYFNKQPYPTRREIEKLAASLWLWSSDIASHFSNKRKK [K28S] | Condition met
FLTKYFCKQPYPTRREIEKLAASLWLWKSDIASHFSNKRKK [N7C] | Condition not met
FLTKYFNKQPYPTRREIEKLAASLWLWKSDIASHFSNKRKT [K41T] | Condition not met
FLQKYFNKQPYPTRREIEKLAASLWLWKSDIASHFSNKRKK [T3Q] | Condition not met
FLTKYFNKQPYPTRREIEKLAASLWLWKIDIASHFSNKRKK [S29I] | Condition met
FLTKYFNKQPYPTRREIWKLAASLWLWKSDIASHFSNKRKK [E18W] | Condition not met
FLTKYFPKQPYPTRREIEKLAASLWLWKSDIASHFSNKRKK [N7P] | Condition met
FLTKYFNKQPYPTRREIEKLAASLWYWKSDIASHFSNKRKK [L26Y] | Condition not met
FLTKYFNKQPYPTRREIEKNAASLWLWKSDIASHFSNKRKK [L20N] | Condition not met
FLTKYFNKQPYPTRRRIEKLAASLWLWKSDIASHFSNKRKK [E16R] | Condition met
FLTKYFNKQPIPTRREIEKLAASLWLWKSDIASHFSNKRKK [Y11I] | Condition met
FLTKYFNKQPYPTRREIEKLAASLWLWKSDIASHFSNKRKE [K41E] | Condition met
FLTKYFTKQPYPTRREIEKLAASLWLWKSDIASHFSNKRKK [N7T] | Condition not met
FLTKYFNKQPYPTRREIEKLAASLWLWKSDIASHFQNKRKK [S36Q] | Condition met
FLTKYFNKQPYWTRREIEKLAASLWLWKSDIASHFSNKRKK [P12W] | Condition not met
FLTKYFNKQPYPTRREIEKLAASFWLWKSDIASHFSNKRKK [L24F] | Condition not met
FLTKYFNVQPYPTRREIEKLAASLWLWKSDIASHFSNKRKK [K8V] | Condition not met
FLMKYFNKQPYPTRREIEKLAASLWLWKSDIASHFSNKRKK [T3M] | Condition not met
FLTKYFNKQPYPTRREIEKLAASLWLWWSDIASHFSNKRKK [K28W] | Condition met
FLTKYFNKQPYPTRREIEKLAASLWLWKSDIASHFSNKRKW [K41W] | Condition met
FLTKYFNKQPYPTRREIEKLIASLWLWKSDIASHFSNKRKK [A21I] | Condition not met
FLTKYFNKQPYPTRAEIEKLAASLWLWKSDIASHFSNKRKK [R15A] | Condition met
FLTKYFNKQPYTTRREIEKLAASLWLWKSDIASHFSNKRKK [P12T] | Condition not met
FLTKYFNKQPYPTRREIEKLAASLWLWLSDIASHFSNKRKK [K28L] | Condition met
FLTKYFNKQPYPTRREIEKLEASLWLWKSDIASHFSNKRKK [A21E] | Condition not met
FLTKYFNKQPYPTRREIEKLAASLWLKKSDIASHFSNKRKK [W27K] | Condition met
FLTKYFNKQPYPTKREIEKLAASLWLWKSDIASHFSNKRKK [R14K] | Condition met
FLTKYFNKQPYPTRREIEKLAASLWLWKSDIASHFKNKRKK [S36K] | Condition met
FLTKYFNKQPYPTRREIEKLAASLWLWCSDIASHFSNKRKK [K28C] | Condition met
